target: T1, biotinylated CD3 epsilon:delta heterodimer protein (Amsbio AMS.CDD-H52WO) (Homo sapiens (Human), UniProt P07766 23-126; P04234 22-105); assay: BLI (Octet), CD3 on SA sensor, Fab analyte;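 further: biolayer interferometry with biotinylated CD3 epsilon:delta captured on streptavidin sensors, Fab analyte at several concentrations up to 300 nM, 100 s association then 300 s dissociation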
T1 construct: also called CD3 heterodimer
Assignment: determine reported kon for the given binders.
Report as a plain number; the unit M⁻¹ s⁻¹ is understood.

Asked: Which kon value is on record for huSP34.9.2 Fab-HF (Fab, V domains shown, also called HC9+LC2) VH: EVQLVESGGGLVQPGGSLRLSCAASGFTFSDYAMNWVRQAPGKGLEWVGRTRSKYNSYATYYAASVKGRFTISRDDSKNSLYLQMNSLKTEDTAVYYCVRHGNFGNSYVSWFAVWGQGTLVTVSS VL: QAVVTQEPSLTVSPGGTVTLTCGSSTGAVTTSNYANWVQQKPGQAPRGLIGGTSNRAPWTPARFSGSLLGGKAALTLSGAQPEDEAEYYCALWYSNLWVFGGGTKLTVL ?
Given back: 192000

Asked: Now the same for huSP34.2.1 Fab-HF (Fab, V domains shown, also called HC2+LC1) VH: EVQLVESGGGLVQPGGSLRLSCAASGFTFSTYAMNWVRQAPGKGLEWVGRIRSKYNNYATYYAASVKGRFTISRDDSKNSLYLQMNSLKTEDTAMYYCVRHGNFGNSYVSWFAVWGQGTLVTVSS VL: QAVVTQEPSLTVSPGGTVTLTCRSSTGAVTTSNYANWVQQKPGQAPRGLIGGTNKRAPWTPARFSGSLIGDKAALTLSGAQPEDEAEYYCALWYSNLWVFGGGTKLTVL
Given back: 246000

Asked: Now try huSP34.6.2 Fab-HF (Fab, V domains shown, also called HC6+LC2) VH: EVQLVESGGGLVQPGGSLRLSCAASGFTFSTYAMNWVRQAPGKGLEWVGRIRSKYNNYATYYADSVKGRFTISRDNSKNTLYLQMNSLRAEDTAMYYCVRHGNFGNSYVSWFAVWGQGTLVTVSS VL: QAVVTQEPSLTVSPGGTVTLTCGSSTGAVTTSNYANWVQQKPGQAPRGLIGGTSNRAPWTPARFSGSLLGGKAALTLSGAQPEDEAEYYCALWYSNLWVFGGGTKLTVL .
Given back: 144000

Origin of measurements: patent US20230056252A1
